experimental-protocol: Half life in Sprague-Dawley rat plasma at 1 mg/kg, iv by cassette-dosing assay
Format: ADME, organism-based
Set-up: dose 1 mg/kg, route intravenous

>  <compound>
O=C(O)[C@H]1C2CCC(C2)[C@@H]1NC(=O)[C@@H]1CCCN1S(=O)(=O)c1cc(Cl)cc(Cl)c1 (stereo partly specified)

>  <half-life [h]>
1.9

$$$$

---

study-system: Integrin alpha-4/beta-1 (Homo sapiens, UniProt P05556+P13612)
Sequence (P05556 whole entry): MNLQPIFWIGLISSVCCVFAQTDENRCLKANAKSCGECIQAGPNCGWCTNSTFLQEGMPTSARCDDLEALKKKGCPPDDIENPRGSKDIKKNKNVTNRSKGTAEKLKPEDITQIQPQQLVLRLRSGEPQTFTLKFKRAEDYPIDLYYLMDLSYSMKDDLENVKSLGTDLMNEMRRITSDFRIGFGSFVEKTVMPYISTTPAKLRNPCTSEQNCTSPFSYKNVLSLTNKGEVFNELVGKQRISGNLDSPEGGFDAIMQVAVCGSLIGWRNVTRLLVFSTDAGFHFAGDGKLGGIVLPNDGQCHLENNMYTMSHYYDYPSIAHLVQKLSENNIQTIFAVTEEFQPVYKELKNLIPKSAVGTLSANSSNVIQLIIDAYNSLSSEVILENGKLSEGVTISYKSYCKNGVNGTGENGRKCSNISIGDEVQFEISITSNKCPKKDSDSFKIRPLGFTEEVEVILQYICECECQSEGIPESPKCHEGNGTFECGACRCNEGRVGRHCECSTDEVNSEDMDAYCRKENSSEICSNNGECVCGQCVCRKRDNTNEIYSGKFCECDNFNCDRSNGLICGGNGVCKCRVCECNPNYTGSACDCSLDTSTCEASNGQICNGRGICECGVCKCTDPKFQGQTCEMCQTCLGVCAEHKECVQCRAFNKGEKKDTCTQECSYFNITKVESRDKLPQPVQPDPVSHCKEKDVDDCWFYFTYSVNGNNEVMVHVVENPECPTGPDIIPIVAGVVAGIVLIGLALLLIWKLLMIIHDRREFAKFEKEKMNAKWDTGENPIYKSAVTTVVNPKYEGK
Sequence (P13612 whole entry): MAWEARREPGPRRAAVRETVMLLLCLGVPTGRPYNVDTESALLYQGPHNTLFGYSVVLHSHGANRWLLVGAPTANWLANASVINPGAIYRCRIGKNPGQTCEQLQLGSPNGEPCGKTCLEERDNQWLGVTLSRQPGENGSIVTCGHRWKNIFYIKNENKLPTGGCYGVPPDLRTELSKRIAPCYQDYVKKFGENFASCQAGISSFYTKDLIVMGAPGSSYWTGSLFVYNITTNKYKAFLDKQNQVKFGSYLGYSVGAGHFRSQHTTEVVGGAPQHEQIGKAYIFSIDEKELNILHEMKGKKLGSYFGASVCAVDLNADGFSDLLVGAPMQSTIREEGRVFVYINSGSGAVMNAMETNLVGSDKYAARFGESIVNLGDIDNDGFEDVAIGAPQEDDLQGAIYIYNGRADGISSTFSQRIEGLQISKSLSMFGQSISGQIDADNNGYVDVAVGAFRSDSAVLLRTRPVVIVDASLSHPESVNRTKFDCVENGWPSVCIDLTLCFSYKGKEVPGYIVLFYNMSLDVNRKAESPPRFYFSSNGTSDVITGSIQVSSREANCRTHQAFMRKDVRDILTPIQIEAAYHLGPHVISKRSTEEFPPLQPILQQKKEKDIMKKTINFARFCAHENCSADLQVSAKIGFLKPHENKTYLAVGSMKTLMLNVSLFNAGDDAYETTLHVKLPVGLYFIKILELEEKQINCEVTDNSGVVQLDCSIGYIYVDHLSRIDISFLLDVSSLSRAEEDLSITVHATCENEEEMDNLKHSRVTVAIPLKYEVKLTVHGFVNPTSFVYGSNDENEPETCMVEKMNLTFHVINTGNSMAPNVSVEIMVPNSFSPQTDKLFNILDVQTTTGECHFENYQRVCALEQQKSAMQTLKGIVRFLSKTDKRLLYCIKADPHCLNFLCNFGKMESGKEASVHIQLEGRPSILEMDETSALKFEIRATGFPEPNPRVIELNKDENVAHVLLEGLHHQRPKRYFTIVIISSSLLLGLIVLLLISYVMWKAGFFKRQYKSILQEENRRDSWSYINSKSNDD
experimental-protocol: Binding affinity to human VLA4 alpha4beta1 in Jurkat cells
pIC50: −log10 of the molar value.

>  <compound>
CC(C)[C@@H](C(=O)NC1CCCCC1C(=O)O)N(C)S(=O)(=O)c1cc(Cl)cc(Cl)c1 (stereo partly drawn)

>  <study-system>
Integrin alpha-4/beta-1 (Homo sapiens, UniProt P05556+P13612)

>  <pIC50>
6.34

$$$$
>  <compound>
O=C(O)[C@H]1CCCC[C@@H]1NC(=O)[C@@H]1CCCN1S(=O)(=O)c1cc(Cl)cc(Cl)c1

>  <study-system>
Integrin alpha-4/beta-1 (Homo sapiens, UniProt P05556+P13612)

>  <pIC50>
6.28

$$$$
>  <compound>
O=C(O)[C@H]1CCCC[C@H]1NC(=O)[C@@H]1CCCN1S(=O)(=O)c1cc(Cl)cc(Cl)c1

>  <study-system>
Integrin alpha-4/beta-1 (Homo sapiens, UniProt P05556+P13612)

>  <pIC50>
5.02

$$$$
>  <compound>
O=C(O)[C@@H]1C2CCC(C2)[C@@H]1NC(=O)[C@@H]1CCCN1S(=O)(=O)c1cc(Cl)cc(Cl)c1 (stereo partly drawn)

>  <study-system>
Integrin alpha-4/beta-1 (Homo sapiens, UniProt P05556+P13612)

>  <pIC50>
5.80

$$$$
>  <compound>
O=C(O)[C@H]1C2CCC(CC2)[C@@H]1NC(=O)[C@@H]1CCCN1S(=O)(=O)c1cc(Cl)cc(Cl)c1

>  <study-system>
Integrin alpha-4/beta-1 (Homo sapiens, UniProt P05556+P13612)

>  <pIC50>
5.56

$$$$
>  <compound>
O=C(O)[C@H]1C2CCC(C2)[C@@H]1NC(=O)[C@@H]1CCCN1S(=O)(=O)c1cc(Cl)cc(Cl)c1 (stereo partly drawn)

>  <study-system>
Integrin alpha-4/beta-1 (Homo sapiens, UniProt P05556+P13612)

>  <pIC50>
7.27

$$$$
>  <compound>
O=C(O)[C@H]1C2CCC(O2)[C@@H]1NC(=O)[C@@H]1CCCN1S(=O)(=O)c1cc(Cl)cc(Cl)c1 (stereo partly drawn)

>  <study-system>
Integrin alpha-4/beta-1 (Homo sapiens, UniProt P05556+P13612)

>  <pIC50>
4.59

$$$$
